- experiment-summary: Blood-to-brain distribution in rats
- Format: in vivo
- condition-set: male, SD; rat, 10 mg/kg single oral gavage, plasma; read-out: AUC0-inf Plasma
# AUC(0-inf) listing for each entry below
Numeric answer only, unit µM·h assumed.

{"compound": "C[C@H]1CNC(=O)c2cnn3ccc(nc23)N[C@H](C)c2cc(F)ccc2O1 [TPX-0005, reference compound]", "endpoint": "AUC(0-inf)", "result-number": 13.9}

Continue with the compound presented below.
Tell me the measured AUC(0-inf) of C[C@H]1COC(=O)c2cnn3ccc(nc23)N[C@H](C)c2cc(F)ccc2O1 [Example 1] , please.
18.2

* * *

- target: TRKB (Homo sapiens (Human), UniProt Q16620)
- Sequence (Q16620 32-822): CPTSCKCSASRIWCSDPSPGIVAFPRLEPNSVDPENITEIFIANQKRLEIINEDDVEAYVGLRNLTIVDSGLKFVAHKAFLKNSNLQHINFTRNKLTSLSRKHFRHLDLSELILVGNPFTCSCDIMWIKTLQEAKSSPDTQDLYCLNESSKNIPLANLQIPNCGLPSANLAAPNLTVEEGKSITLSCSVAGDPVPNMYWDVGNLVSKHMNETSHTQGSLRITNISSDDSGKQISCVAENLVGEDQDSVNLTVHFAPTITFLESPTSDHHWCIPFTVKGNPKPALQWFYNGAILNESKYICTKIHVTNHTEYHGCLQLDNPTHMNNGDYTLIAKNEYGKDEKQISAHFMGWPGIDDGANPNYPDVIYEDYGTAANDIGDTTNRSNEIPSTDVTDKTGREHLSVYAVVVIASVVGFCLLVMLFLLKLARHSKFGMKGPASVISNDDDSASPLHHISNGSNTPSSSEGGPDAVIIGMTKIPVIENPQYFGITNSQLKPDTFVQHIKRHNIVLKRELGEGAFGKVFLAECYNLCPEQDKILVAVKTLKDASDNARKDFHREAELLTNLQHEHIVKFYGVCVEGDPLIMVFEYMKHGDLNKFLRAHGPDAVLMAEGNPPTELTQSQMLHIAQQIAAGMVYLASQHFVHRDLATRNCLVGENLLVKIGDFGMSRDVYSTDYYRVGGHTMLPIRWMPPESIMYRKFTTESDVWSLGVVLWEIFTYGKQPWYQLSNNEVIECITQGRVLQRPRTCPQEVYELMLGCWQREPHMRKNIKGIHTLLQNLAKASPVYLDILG
- experiment-summary: Mobility shift assay, TRKB kinase
- condition-set: read-out: TRKB IC50, ATP 71.2 μM
Each record here notes measured pIC50.
Worth noting: pIC50 values are minus log10 of concentrations stated in mol/L.

Below are worked cases with known answers.
{"compound": "C[C@@H]1COc2ccc(F)cc2[C@@H](C)Nc2ccn3ncc(c3n2)C(=O)O1 [Example 6]", "target": "TRKB (Homo sapiens (Human), UniProt Q16620)", "endpoint": "pIC50", "result-number": 8.92}
{"compound": "C[C@H]1COC(=O)c2cnn3ccc(nc23)N[C@H](C)c2cc(F)ccc2O1 [Example 1]", "target": "TRKB (Homo sapiens (Human), UniProt Q16620)", "endpoint": "pIC50", "result-number": 9.30}
{"compound": "C[C@H]1COC(=O)c2cnn3ccc(nc23)N[C@H](C)c2cc(F)ccc2S1 [Example 9]", "target": "TRKB (Homo sapiens (Human), UniProt Q16620)", "endpoint": "pIC50", "result-number": 9.07}

Would you kindly look at the next entry?
Please look up its pIC50: C[C@H]1Nc2ccn3ncc(c3n2)C(=O)OCCOc2ccc(F)cc21 [Example 13]
9.05
